# SYSTEM TESTED: Tyk2 (Homo sapiens (Human))
# Sequence (P29597 whole entry): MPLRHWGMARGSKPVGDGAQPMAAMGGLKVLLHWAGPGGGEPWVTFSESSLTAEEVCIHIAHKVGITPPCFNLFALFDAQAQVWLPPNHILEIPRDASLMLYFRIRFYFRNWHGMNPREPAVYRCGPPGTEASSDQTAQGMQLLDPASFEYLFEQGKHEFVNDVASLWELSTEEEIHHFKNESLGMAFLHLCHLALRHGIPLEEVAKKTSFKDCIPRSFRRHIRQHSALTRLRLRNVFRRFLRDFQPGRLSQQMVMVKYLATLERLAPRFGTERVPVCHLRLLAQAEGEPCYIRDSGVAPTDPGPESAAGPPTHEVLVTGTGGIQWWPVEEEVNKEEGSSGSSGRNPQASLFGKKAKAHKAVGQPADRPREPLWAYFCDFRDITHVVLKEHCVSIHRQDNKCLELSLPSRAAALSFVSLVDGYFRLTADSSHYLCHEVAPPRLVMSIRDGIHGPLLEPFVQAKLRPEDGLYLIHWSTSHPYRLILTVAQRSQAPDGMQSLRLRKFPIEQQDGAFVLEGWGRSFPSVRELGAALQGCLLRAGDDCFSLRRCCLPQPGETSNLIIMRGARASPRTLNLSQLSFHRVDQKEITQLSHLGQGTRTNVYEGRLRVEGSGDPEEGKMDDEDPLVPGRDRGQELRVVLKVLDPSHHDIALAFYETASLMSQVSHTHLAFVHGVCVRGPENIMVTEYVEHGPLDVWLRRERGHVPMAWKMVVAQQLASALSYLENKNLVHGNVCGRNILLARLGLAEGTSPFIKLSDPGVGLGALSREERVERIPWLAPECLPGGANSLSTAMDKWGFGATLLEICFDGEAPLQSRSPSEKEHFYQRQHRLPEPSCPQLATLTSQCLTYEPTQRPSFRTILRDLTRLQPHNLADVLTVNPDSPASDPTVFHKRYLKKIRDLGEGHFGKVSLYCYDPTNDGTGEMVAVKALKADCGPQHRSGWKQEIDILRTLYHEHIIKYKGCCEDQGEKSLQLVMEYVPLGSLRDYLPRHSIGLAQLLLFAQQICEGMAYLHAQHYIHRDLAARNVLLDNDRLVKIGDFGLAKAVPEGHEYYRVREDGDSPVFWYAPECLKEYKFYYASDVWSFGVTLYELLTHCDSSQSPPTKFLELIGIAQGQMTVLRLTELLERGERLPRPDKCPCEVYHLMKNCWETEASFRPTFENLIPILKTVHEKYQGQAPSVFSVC
# METHOD: LanthaScreen JAK biochemical assay (Tyk2)
# CONDITION DESCRIPTION: read-out: Tyk 2 (pKi) (converted)
Ki: recorded values

[[record]]
cpd_smiles = "COc1cnc2cc(Nc3cc(C)[nH]n3)nc(N[C@@H]3C[C@H]4CC[C@@H](C3)N4S(C)(=O)=O)c2c1"
system_tested = "Tyk2 (Homo sapiens (Human))"
measurement = "0.1 to 1 nM"

[[record]]
cpd_smiles = "COc1cnc2cc(Nc3cc(C)[nH]n3)nc(N[C@@H]3C[C@H]4CC[C@@H](C3)N4S(=O)(=O)CC3(C#N)CC3)c2c1"
system_tested = "Tyk2 (Homo sapiens (Human))"
measurement = "0.1 to 1 nM"

[[record]]
cpd_smiles = "Cc1cc(Nc2cc3ncccc3c(N[C@@H]3C[C@H]4CC[C@@H](C3)N4S(=O)(=O)N3CC(C#N)C3)n2)n[nH]1"
system_tested = "Tyk2 (Homo sapiens (Human))"
measurement = "0.1 to 1 nM"

[[record]]
cpd_smiles = "Cc1cc(Nc2cc3ncccc3c(N[C@@H]3C[C@H]4CCC[C@@H](C3)N4S(=O)(=O)c3cncc(F)c3)n2)n[nH]1"
system_tested = "Tyk2 (Homo sapiens (Human))"
measurement = "0.1 to 1 nM"

[[record]]
cpd_smiles = "Cc1cc(Nc2cc3nc(CN4CCOCC4)ccc3c(N[C@@H]3C[C@H]4CC[C@@H](C3)N4S(=O)(=O)c3cncc(F)c3)n2)n[nH]1"
system_tested = "Tyk2 (Homo sapiens (Human))"
measurement = "0.1 to 1 nM"


In: Name the recorded Ki for Cc1cc(Nc2cc3ncccc3c(N[C@@H]3C[C@H]4CC[C@@H](C3)N4S(C)(=O)=O)n2)n[nH]1 .
Out: 0.1 to 1 nM

----------
# Test system: IL-4 induced STAT6 phosphorylation in THP-1 human monocytic cells
# METHOD: Cellular JAK potency assay, THP-1
# CONDITION DESCRIPTION: Homo sapiens, THP-1, read-out: THP-1 IL4 pIC50 (converted)
EXPERIMENTAL ENDPOINT: IC50

[[record]]
molecule = "Cc1cc(Nc2cc3ncccc3c(N[C@@H]3C[C@H]4CCC[C@@H](C3)N4S(=O)(=O)c3cncc(F)c3)n2)n[nH]1 [Example 14]"
experimental_endpoint = "IC50"
measurement = "< 31.6 nM"


In: Find the measured IC50: item Cc1cc(Nc2cc3ncccc3c(N[C@@H]3C[C@H]4CC[C@@H](C3)N4CC3(C#N)CC3)n2)n[nH]1 [Example 1-24] , target or system IL-4 induced STAT6 phosphorylation in THP-1 human monocytic cells.
Out: 31.6 to 200 nM

In: Then what about the molecule Cc1cc(Nc2cc3ncccc3c(N[C@@H]3C[C@H]4CC[C@@H](C3)N4S(=O)(=O)C3CCCC3)n2)n[nH]1 [Example 4-5] ?
Out: < 31.6 nM

----------
# METHOD: First in human study of safety, tolerability and pharmacokinetics in healthy subjects
# Format: in vivo
# CONDITION DESCRIPTION: human, plasma, oral, healthy subjects, single dose up to 1000 mg; read-out: average Cmax plasma concentration
EXPERIMENTAL ENDPOINT: Cmax

In: Name the recorded Cmax for Cc1cc(Nc2cc3ncccc3c(N[C@@H]3C[C@H]4CC[C@@H](C3)N4CCC#N)n2)n[nH]1 .
Out: < 50 ng/mL

The reported measurements were obtained from patent US10072026B2.
